B1: TPR 5TU (parent)
chain: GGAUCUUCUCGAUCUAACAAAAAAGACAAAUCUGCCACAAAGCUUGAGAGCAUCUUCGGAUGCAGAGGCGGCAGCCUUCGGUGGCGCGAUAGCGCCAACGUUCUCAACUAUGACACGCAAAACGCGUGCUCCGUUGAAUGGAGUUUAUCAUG

Variants of: B1
Method notes: polymerase ribozyme fitness, log enrichment relative to wild type (log ratio); higher = more active; in vitro selection for triplet polymerase activity
Fewer inactive variants are shown than the library holds.
Outcome measure: polymerase ribozyme fitness (log ratio)
One number for each entry.

INSERT INTO measurements (mutation, recorded_result) VALUES
  ('G94C G117U', 0.0157);

For each of the variants below, note its polymerase ribozyme fitness (log ratio).
1. G81A G152C
2. A52U C57U G83C
3. C54G C95U

-3.29
-3.29
-2.35

For each of the variants below, note its polymerase ribozyme fitness (log ratio).
1. C116U A122U
2. G25A U55A

1: -0.326; 2: -2.09

For each of the variants below, note its polymerase ribozyme fitness (log ratio).
1. A12U A52C G84A A98G
2. A3U C96U A97G
3. A49C U101G G141U

-2.65
0.661
-1.78

For each of the variants below, note its polymerase ribozyme fitness (log ratio).
1. A40U G68A
2. A12G C57G G83U A115G
3. C85A C99G
4. C72U G126U
5. U56A C85U
6. U7A U55A
7. A20U A52C

1. -4.03
2. -2.09
3. -3.49
4. -0.101
5. -0.564
6. -3.25
7. -2.87
